# TEST TARGET: ALK tyrosine kinase receptor (Homo sapiens, UniProt Q9UM73)
# Sequence (Q9UM73 whole entry, the tested form may be a part): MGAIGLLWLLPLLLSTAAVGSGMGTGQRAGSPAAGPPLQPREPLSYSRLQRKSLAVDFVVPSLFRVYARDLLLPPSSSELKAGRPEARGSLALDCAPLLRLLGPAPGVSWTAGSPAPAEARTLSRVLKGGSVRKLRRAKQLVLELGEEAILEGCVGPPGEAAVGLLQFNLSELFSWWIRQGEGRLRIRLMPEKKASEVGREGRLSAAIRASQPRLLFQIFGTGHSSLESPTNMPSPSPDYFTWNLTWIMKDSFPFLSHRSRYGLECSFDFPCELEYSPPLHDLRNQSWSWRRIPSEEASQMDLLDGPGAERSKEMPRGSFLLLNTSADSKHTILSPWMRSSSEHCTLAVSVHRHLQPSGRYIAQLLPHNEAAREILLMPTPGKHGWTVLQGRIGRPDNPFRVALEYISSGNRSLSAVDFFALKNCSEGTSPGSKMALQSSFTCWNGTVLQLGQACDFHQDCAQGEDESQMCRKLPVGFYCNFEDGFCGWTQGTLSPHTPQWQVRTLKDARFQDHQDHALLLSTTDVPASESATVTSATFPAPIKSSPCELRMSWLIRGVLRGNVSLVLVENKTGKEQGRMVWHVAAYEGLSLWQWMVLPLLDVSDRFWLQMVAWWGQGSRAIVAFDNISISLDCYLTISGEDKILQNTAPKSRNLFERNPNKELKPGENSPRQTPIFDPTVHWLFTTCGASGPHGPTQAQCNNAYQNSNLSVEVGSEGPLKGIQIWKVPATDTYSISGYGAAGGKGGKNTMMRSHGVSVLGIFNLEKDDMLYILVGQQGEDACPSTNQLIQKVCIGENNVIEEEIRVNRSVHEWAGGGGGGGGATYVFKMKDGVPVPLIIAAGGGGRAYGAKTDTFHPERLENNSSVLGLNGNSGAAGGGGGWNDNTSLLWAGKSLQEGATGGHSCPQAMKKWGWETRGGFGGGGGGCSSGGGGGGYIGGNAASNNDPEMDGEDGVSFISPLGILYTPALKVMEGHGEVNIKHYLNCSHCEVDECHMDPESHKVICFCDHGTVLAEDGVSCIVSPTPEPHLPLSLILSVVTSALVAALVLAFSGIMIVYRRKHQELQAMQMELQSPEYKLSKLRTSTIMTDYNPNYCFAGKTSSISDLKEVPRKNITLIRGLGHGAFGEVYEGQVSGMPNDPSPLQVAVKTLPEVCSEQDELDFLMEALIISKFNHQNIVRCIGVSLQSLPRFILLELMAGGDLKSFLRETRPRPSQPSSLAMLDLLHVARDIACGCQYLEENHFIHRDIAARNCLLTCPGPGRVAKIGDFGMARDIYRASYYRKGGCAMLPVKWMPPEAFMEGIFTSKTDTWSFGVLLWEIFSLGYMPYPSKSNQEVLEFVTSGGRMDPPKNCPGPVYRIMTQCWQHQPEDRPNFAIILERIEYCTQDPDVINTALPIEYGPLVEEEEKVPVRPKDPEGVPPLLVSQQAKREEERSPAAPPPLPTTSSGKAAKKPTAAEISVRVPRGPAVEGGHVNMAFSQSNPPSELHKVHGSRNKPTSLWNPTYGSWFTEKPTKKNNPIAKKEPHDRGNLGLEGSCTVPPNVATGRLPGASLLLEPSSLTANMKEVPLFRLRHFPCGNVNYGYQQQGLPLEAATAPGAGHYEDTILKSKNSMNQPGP
# ASSAY METHOD TEXT: Inhibition of recombinant human N-terminal GST-tagged ALK (1058 to 1620 residues) cytoplasmic domain expressed in baculovirus expression system using srctide as substrate incubated for 1 hr by mobility shift assay
Would you kindly list IC50 for each of these compounds?
One number for each entry, in nM.

Please review the following examples before continuing.
COc1cc(NC(=O)N2CCN(CCO)CC2)ccc1Nc1ncc(Cl)c(Nc2ccccc2NC(C)=O)n1; 6.3
COc1cc(N2CCCNC2=O)ccc1Nc1ncc(Cl)c(Nc2ccccc2NC(C)=O)n1; 4.7
COc1cc(NC(=O)C2CC2)ccc1Nc1ncc(Cl)c(Nc2ccccc2NC(C)=O)n1; 4.1
COc1cc(N2CCCC2=O)ccc1Nc1ncc(Cl)c(Nc2ccccc2NC(C)=O)n1; 6.2
COc1cc(NC(=O)N2CCCC2)ccc1Nc1ncc(Cl)c(Nc2ccccc2NC(C)=O)n1; 5.1

Parameter requested: IC50. Apply to each item below.
1. COc1cc(NC(=O)NC2CCC(=O)CC2)ccc1Nc1ncc(Cl)c(Nc2ccccc2NC(C)=O)n1
2. COc1cc(NC(=O)N2CCOCC2)ccc1Nc1ncc(Cl)c(Nc2ccccc2NC(C)=O)n1

2.5
2.1
